PROTOCOL_SUMMARY: Cytotoxicity against human RBC assessed as hemolysis at 100 uM after 1 hr by microplate reader method
Type: cell-based, Erythrocyte
PROTOCOL_CONDITIONS: red blood cells (RBC), read-out: Activity
PROPERTY_LABEL: hemolysis at 1 h, 100 µM (%)
Give just the numeric value; % need not be written.

Below: 3 molecules and their reported hemolysis at 1 h, 100 µM.
# SMILES_INPUT, EXPERIMENTAL_VALUE
records = [
    ("CCCN(CCC)c1c([N+](=O)[O-])cc(C(F)(F)F)cc1[N+](=O)[O-]", 1.3),
    ("CCCCCCN(CCO)c1c([N+](=O)[O-])cc(C(F)(F)F)cc1[N+](=O)[O-]", 0.7),
    ("CCCCCN(CCO)c1c([N+](=O)[O-])cc(C(F)(F)F)cc1[N+](=O)[O-]", 0.8),
]

Memo: O=[N+]([O-])c1cc(C(F)(F)F)cc([N+](=O)[O-])c1N1CCOCC1 , reported hemolysis at 1 h, 100 µM: 0.3
